# System: Salmonella TA104
# MEASUREMENT_PROTOCOL: Salmonella plate-incorporation mutagenicity assay, strain TA104, with S9 mix
# Assay type: cell-based
# ASSAY_CONTEXT: plate-incorporation, +S9
Please assign not met whenever Mutagenic potency, Revertants/µg ± S.E., TA104 is at or above 200 rev/µg, and met whenever it is below.

INSERT INTO results (compound, measured_on, label_value) VALUES
  ('c1ccc2c(c1)ccc1ccc3ccsc3c12 [P[4,3-b]T, Phenanthro[4,3-b]thiophene]', 'Salmonella TA104', 'met'),
  ('O=S1(=O)C=Cc2c1ccc1ccc3ccccc3c21 [P[3,4-b]T sulfone, Phenanthro[3,4-b]thiophene sulfone]', 'Salmonella TA104', 'not met'),
  ('O[C@@H]1C=Cc2c(ccc3ccc4ccccc4c23)[C@H]1O (racemic) [B[c]P 3,4-diol]', 'Salmonella TA104', 'not met'),
  ('O[C@@H]1c2ccccc2-c2c(ccc3sccc23)[C@H]1O (racemic) [P[3,4-b]T 6,7-diol]', 'Salmonella TA104', 'met'),
  ('c1ccc2c(c1)ccc1ccc3ccccc3c12 [B[c]P, Benzo[c]phenanthrene]', 'Salmonella TA104', 'not met');

Consider the additional compound presented here.
Threshold test, Mutagenic potency, Revertants/µg ± S.E., TA104 < 200 rev/µg: O[C@@H]1c2ccccc2-c2c(ccc3ccccc23)[C@H]1O (racemic) [B[c]P 5,6-diol]
met

* * *

# System: Salmonella TA98
# MEASUREMENT_PROTOCOL: Salmonella plate-incorporation mutagenicity assay, strain TA98, with S9 mix
# Assay type: cell-based
# ASSAY_CONTEXT: TA98 +S9, Test 1, 40 µg/plate; zero-dose 33/40/39
OBSERVABLE: log10 Rev/plate (log10 of the value in rev/plate)
Heads up, the numbers here are log10 of Rev/plate in rev/plate units.

Study these solved cases before continuing.
INSERT INTO assay_data (molecule, readout_number) VALUES
  ('O[C@@H]1c2ccccc2-c2c(ccc3sccc23)[C@H]1O (racemic) [P[3,4-b]T 6,7-diol]', 2.03),
  ('c1ccc2c(c1)ccc1ccc3ccccc3c12 [B[c]P, Benzo[c]phenanthrene]', 1.70),
  ('O[C@@H]1C=Cc2c(ccc3ccc4sccc4c23)[C@H]1O (racemic) [P[3,4-b]T 8,9-diol]', 2.45),
  ('O[C@@H]1C=Cc2c(ccc3ccc4ccsc4c23)[C@H]1O (racemic) [P[4,3-b]T 8,9-diol]', 2.64),
  ('c1ccc2c(c1)ccc1ccc3sccc3c12 [P[3,4-b]T, Phenanthro[3,4,-b]thiophene]', 1.78);

Next molecule, log10 Rev/plate to be filled in.
Can you look up the measured log10 Rev/plate of O[C@@H]1c2ccccc2-c2c(ccc3ccsc23)[C@H]1O (racemic) [P[4,3-b]T 6,7-diol] for me?
1.59

* * *

Recorded Rev/plate by entry
# System: Salmonella TA100
# MEASUREMENT_PROTOCOL: Salmonella plate-incorporation mutagenicity assay, strain TA100
# Format: cell-based
# ASSAY_CONTEXT: TA100 +S9, Test 1, 10 µg/plate; zero-dose 99/110/110
Please respond with the number in rev/plate and leave the unit unwritten.

INSERT INTO results (compound, units_of_measure, readout_number) VALUES
  ('O[C@@H]1c2ccccc2-c2c(ccc3ccccc23)[C@H]1O (racemic) [B[c]P 5,6-diol]', 'rev/plate', 147),
  ('O[C@@H]1C=Cc2c(ccc3ccc4sccc4c23)[C@H]1O (racemic) [P[3,4-b]T 8,9-diol]', 'rev/plate', 755),
  ('O[C@@H]1C=Cc2c(ccc3ccc4ccsc4c23)[C@H]1O (racemic) [P[4,3-b]T 8,9-diol]', 'rev/plate', 1120),
  ('c1ccc2c(c1)ccc1ccc3ccsc3c12 [P[4,3-b]T, Phenanthro[4,3-b]thiophene]', 'rev/plate', 190),
  ('O[C@@H]1c2ccccc2-c2c(ccc3ccsc23)[C@H]1O (racemic) [P[4,3-b]T 6,7-diol]', 'rev/plate', 126);

Any idea what its Rev/plate is? The compound is O[C@@H]1c2ccccc2-c2c(ccc3sccc23)[C@H]1O (racemic) [P[3,4-b]T 6,7-diol]
580

Lookup O[C@@H]1C=Cc2c(ccc3ccc4ccccc4c23)[C@H]1O (racemic) [B[c]P 3,4-diol]
1067

Query c1ccc2c(c1)ccc1ccc3ccccc3c12 [B[c]P, Benzo[c]phenanthrene] next
467

* * *

# System: Salmonella TA100
# MEASUREMENT_PROTOCOL: Salmonella plate-incorporation mutagenicity assay, strain TA100
# Type: cell-based
# ASSAY_CONTEXT: plate-incorporation, +S9
molecules and their reported Mutagenic potency, Revertants/µg ± S.E., TA100
Just the number please, in rev/µg, no unit attached.

Record excerpt, results attached:
INSERT INTO measurements (molecule, units_of_measure, readout_number) VALUES
  ('O[C@@H]1C=Cc2c(ccc3ccc4ccccc4c23)[C@H]1O (racemic) [B[c]P 3,4-diol]', 'rev/µg', 268),
  ('c1ccc2c(c1)ccc1ccc3ccsc3c12 [P[4,3-b]T, Phenanthro[4,3-b]thiophene]', 'rev/µg', 12.8),
  ('O[C@@H]1c2ccccc2-c2c(ccc3ccccc23)[C@H]1O (racemic) [B[c]P 5,6-diol]', 'rev/µg', 1.6),
  ('c1ccc2c(c1)ccc1ccc3ccccc3c12 [B[c]P, Benzo[c]phenanthrene]', 'rev/µg', 56.4),
  ('O[C@@H]1C=Cc2c(ccc3ccc4sccc4c23)[C@H]1O (racemic) [P[3,4-b]T 8,9-diol]', 'rev/µg', 80.0);

In the following, a different molecule is considered.
Would you kindly share the measured Mutagenic potency, Revertants/µg ± S.E., TA100 for O[C@@H]1c2ccccc2-c2c(ccc3sccc23)[C@H]1O (racemic) [P[3,4-b]T 6,7-diol] ?
59.8

* * *

# Tested on: Salmonella TA98
# MEASUREMENT_PROTOCOL: Salmonella plate-incorporation mutagenicity assay, strain TA98, with S9 mix
# Format: cell-based
# ASSAY_CONTEXT: TA98 +S9, Test 2, 40 µg/plate; zero-dose 43/41/30
OBSERVABLE: Rev/plate

Example compounds with recorded Rev/plate:
INSERT INTO measurements (compound, result) VALUES
  ('O[C@@H]1c2ccccc2-c2c(ccc3ccsc23)[C@H]1O (racemic) [P[4,3-b]T 6,7-diol]', '33/27'),
  ('O[C@@H]1C=Cc2c(ccc3ccc4ccsc4c23)[C@H]1O (racemic) [P[4,3-b]T 8,9-diol]', '383/448'),
  ('O[C@@H]1c2ccccc2-c2c(ccc3ccccc23)[C@H]1O (racemic) [B[c]P 5,6-diol]', '46/33'),
  ('O[C@@H]1C=Cc2c(ccc3ccc4sccc4c23)[C@H]1O (racemic) [P[3,4-b]T 8,9-diol]', '276/244'),
  ('O[C@@H]1c2ccccc2-c2c(ccc3sccc23)[C@H]1O (racemic) [P[3,4-b]T 6,7-diol]', '72/84');

Moving on to another compound below.
What reported Rev/plate corresponds to O[C@@H]1C=Cc2c(ccc3ccc4ccccc4c23)[C@H]1O (racemic) [B[c]P 3,4-diol] on Salmonella TA98?
460/414

* * *

# Test system: Salmonella TA98
# MEASUREMENT_PROTOCOL: Salmonella plate-incorporation mutagenicity assay, strain TA98, with S9 mix
# Assay type: cell-based
# ASSAY_CONTEXT: TA98 +S9, Test 3, 5 µg/plate; zero-dose 49/50/50
Documented Rev/plate across a set of compounds

Answered examples (4):
INSERT INTO measurements (compound, observable, result) VALUES
  ('O[C@@H]1C=Cc2c(ccc3ccc4ccccc4c23)[C@H]1O (racemic) [B[c]P 3,4-diol]', 'Rev/plate', '145/173'),
  ('c1ccc2c(c1)ccc1ccc3ccsc3c12 [P[4,3-b]T, Phenanthro[4,3-b]thiophene]', 'Rev/plate', '162/166'),
  ('c1ccc2c(c1)ccc1ccc3ccccc3c12 [B[c]P, Benzo[c]phenanthrene]', 'Rev/plate', '87/61'),
  ('O[C@@H]1c2ccccc2-c2c(ccc3ccsc23)[C@H]1O (racemic) [P[4,3-b]T 6,7-diol]', 'Rev/plate', '50/53');

--- query ---
Bench note: what Rev/plate did O=S1(=O)C=Cc2c1ccc1ccc3ccccc3c21 [P[3,4-b]T sulfone, Phenanthro[3,4-b]thiophene sulfone] show?
1078/922

* * *

# Test system: Salmonella TA98
# MEASUREMENT_PROTOCOL: Salmonella plate-incorporation mutagenicity assay, strain TA98, with S9 mix
# Type: cell-based
# ASSAY_CONTEXT: TA98 +S9, Test 2, 20 µg/plate; zero-dose 43/41/30
OBSERVABLE: Rev/plate

INSERT INTO results (compound, measured_on, result) VALUES
  ('O[C@@H]1C=Cc2c(ccc3ccc4sccc4c23)[C@H]1O (racemic) [P[3,4-b]T 8,9-diol]', 'Salmonella TA98', '124/134'),
  ('O[C@@H]1c2ccccc2-c2c(ccc3ccsc23)[C@H]1O (racemic) [P[4,3-b]T 6,7-diol]', 'Salmonella TA98', '38/27'),
  ('O[C@@H]1C=Cc2c(ccc3ccc4ccsc4c23)[C@H]1O (racemic) [P[4,3-b]T 8,9-diol]', 'Salmonella TA98', '127/225'),
  ('O[C@@H]1c2ccccc2-c2c(ccc3ccccc23)[C@H]1O (racemic) [B[c]P 5,6-diol]', 'Salmonella TA98', '27/49'),
  ('O[C@@H]1c2ccccc2-c2c(ccc3sccc23)[C@H]1O (racemic) [P[3,4-b]T 6,7-diol]', 'Salmonella TA98', '64/63');

Now look at this entry.
Lab request: please report Rev/plate under test system Salmonella TA98 for O[C@@H]1C=Cc2c(ccc3ccc4ccccc4c23)[C@H]1O (racemic) [B[c]P 3,4-diol]
310/260

Entry source: paper PMC2819846
